System: A549
Assay: Antiproliferative activity against human A549 cells expressing wild type EGFR assessed as reduction in cell viability after 72 hrs by MTT assay
Type: functional, cell-based
Conditions: A549, 72 h
REPORTED PROPERTY: log10(IC50) (log10 of the value in nM)
Log10 applied to IC50; unit prior to transform: nM.

// solved cases for log10(IC50) follow
SMILES REPR | TARGET | log10(IC50)
C=CCc1ccc(O)c(-c2cc(CC=C)cc(CN3CCC(N)CC3)c2O)c1 | A549 | 3.92
C=CCc1ccc(OCC)c(-c2cc(CC=C)cc(CN3CCC(N)CC3)c2O)c1 | A549 | 3.48
C=CCc1ccc(OCC)c(-c2cc(CC=C)cc(CN3CCC(NC(=O)[C@@H](N)Cc4ccccc4)CC3)c2O)c1 | A549 | 3.30

For the 3 compounds below, give their log10(IC50) values.
1. C=CCc1ccc(O)c(-c2cc(CC=C)ccc2O)c1
2. C=CCc1ccc(OC(C)C)c(-c2cc(CC=C)cc(CN3CCC(NC(=O)[C@@H](N)Cc4ccccc4)CC3)c2O)c1
3. C=CCc1ccc(OC(C)C)c(-c2cc(CC=C)cc(CN3CCC(N)CC3)c2O)c1

result:
4.92
3.09
2.96

---

Experiment: Metabolic stability in human liver microsomes assessed as intrinsic clearance per gram protein
Format: ADME, Microsome
# label = Satisfied if CLint < 10 mL/min/g else Not satisfied

Solved entries (count: 5):
SMILES REPR | ANSWER LABEL
C=CCc1ccc(O)c(-c2cc(CC=C)cc(CN3CCC(N)CC3)c2O)c1 | Not satisfied
C=CCc1ccc(OCC)c(-c2cc(CC=C)cc(CN3CCC(N)CC3)c2O)c1 | Not satisfied
C=CCc1ccc(OC(C)C)c(-c2cc(CC=C)cc(CN3CCC(NC(=O)[C@@H](N)Cc4ccccc4)CC3)c2O)c1 | Not satisfied
C=CCc1ccc(OC(C)C)c(-c2cc(CC=C)cc(CN3CCC(N)CC3)c2O)c1 | Satisfied
C=CCc1ccc(O)c(-c2cc(CC=C)ccc2O)c1 | Not satisfied

Would you kindly look at the next entry?
query: In plain terms, does C=CCc1ccc(OCC)c(-c2cc(CC=C)cc(CN3CCC(NC(=O)[C@@H](N)Cc4ccccc4)CC3)c2O)c1 come in under 10 mL/min/g for CLint?
result: Not satisfied

---

Experiment: Metabolic stability in human liver microsomes assessed as half life
Type: ADME, Microsome
Task for the reader: assign each of the following compounds its reported half-life.
Numbers only, in h.

For the 4 compounds below, give their half-life values.
1. C=CCc1ccc(OCC)c(-c2cc(CC=C)cc(CN3CCC(NC(=O)[C@@H](N)Cc4ccccc4)CC3)c2O)c1
2. C=CCc1ccc(OC(C)C)c(-c2cc(CC=C)cc(CN3CCC(NC(=O)[C@@H](N)Cc4ccccc4)CC3)c2O)c1
3. C=CCc1ccc(OCC)c(-c2cc(CC=C)cc(CN3CCC(N)CC3)c2O)c1
4. C=CCc1ccc(O)c(-c2cc(CC=C)ccc2O)c1

result:
1: 0.41; 2: 0.362; 3: 2.17; 4: 0.245

For the 2 compounds below, give their half-life values.
1. C=CCc1ccc(O)c(-c2cc(CC=C)cc(CN3CCC(N)CC3)c2O)c1
2. C=CCc1ccc(OC(C)C)c(-c2cc(CC=C)cc(CN3CCC(N)CC3)c2O)c1

result:
2.1
2.62
